# procedureText: Half life in rat 80% plasma by HPLC analysis
# Assay type: ADME, cell-free
endpoint: half-life

# lookup: half-life of O=C(/C=C/c1ccc(-c2ccccc2)cc1)N1CCCC1 > 960 min

----------
# procedureText: Half life in pH 5 phosphate buffer by HPLC analysis
# Assay type: physicochemical
endpoint: half-life

# lookup: half-life of O=C(/C=C/c1ccc(-c2ccccc2)cc1)N1CCCC1 > 16 h

----------
# subjectOfTest: N-acylethanolamine-hydrolyzing acid amidase (Rattus norvegicus, UniProt Q5KTC7)
# Sequence (Q5KTC7 34-130 limits assumed): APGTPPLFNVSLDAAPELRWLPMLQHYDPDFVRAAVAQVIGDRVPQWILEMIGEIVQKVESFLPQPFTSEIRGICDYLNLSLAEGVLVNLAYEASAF
# Sequence (Q5KTC7 131-362 limits assumed): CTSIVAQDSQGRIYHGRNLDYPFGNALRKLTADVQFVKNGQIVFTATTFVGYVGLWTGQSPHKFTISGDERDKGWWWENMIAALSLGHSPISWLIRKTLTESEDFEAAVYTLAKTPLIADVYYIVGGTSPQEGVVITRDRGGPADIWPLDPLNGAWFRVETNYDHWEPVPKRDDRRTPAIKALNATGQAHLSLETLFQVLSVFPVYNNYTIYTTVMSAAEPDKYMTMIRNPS
# procedureText: Inhibition of rat NAAA expressed in HEK293 cells using heptadecenoylethanolamide as substrate after 30 mins HPLC-MS/MS analysis
pIC50: −log10 of the molar value.
Param threshold (5) applies to pIC50; output T when value >= threshold, F when value < threshold.

>>> cat("O=C(CCCCCCc1cccs1)N1CCCC1")
"F"
>>> cat("O=C(O)c1cccc(CCCCCCC(=O)N2CCCC2)c1")
"F"
>>> cat("Cc1ccccc1-c1ccc(CCC(=O)N2CCCC2)cc1")
"F"
>>> cat("COc1ccc(CCCCCCC(=O)N2CCCC2)cc1")
"F"
>>> cat("O=C(CCCCCCc1ccccc1Cl)N1CCCC1")
"F"
>>> cat("O=C(CCc1ccc(-c2cccs2)cc1)N1CCCC1")
"F"

Hello, I need to know if O=C(CCCCc1ccc2c(c1)OCO2)N1CCCC1 has measured pIC50 not below 5. Thanks! T

Hello, I need to know if O=C(CCCC/C=C/c1ccc(OCc2ccccc2)cc1)N1CCCC1 has measured pIC50 not below 5. Thanks! F

Hello, I need to know if O=C(CCc1ccc(-c2cccnc2)cc1)N1CCCC1 has measured pIC50 not below 5. Thanks! F

Hello, I need to know if O=C(CCc1ccc(-c2ccsc2)cc1)N1CCCC1 has measured pIC50 not below 5. Thanks! T

Hello, I need to know if O=C(/C=C/C=C/c1ccc2c(c1)OCO2)N1CCCC1 [TRICHOSTACHINE] has measured pIC50 not below 5. Thanks! T
